Below is a list of entries, each paired with its recorded Huh7_HIBIT-HSD17β13_DC50 GMean Asymptote Maximum value.
test system: HiBiT-HSD17β13 fusion protein (N-terminal HiBiT-tagged HSD17β13 isoform D) in Huh7 HiBiT-HSD17β13 OE cells; assay: Whole-cell Huh7-HSD17B13 HiBiT assay (degrader potency and maximal efficacy, luminescence readout); format: cell-based, human; details: 24 hour incubation, max. concentration 1 μM, geometric mean, * = geometric mean for all forms tested (parent and salt forms)
Counter-ions that a name gives are not always drawn.
Give your result in % as a bare value.

Solved entries:
{"compound": "Cn1c(=O)n(C2CCC(=O)NC2=O)c2ccc(CCC3CN(c4ncc(-c5ccc6cn([C@H]7CC[C@H](CNC(=O)c8cc(F)c(O)c(F)c8F)CC7)nc6c5)cn4)C3)cc21 (mixture of isomers)", "uom": "%", "result.number": 81}
{"compound": "Cn1c(=O)n(C2CCC(=O)NC2=O)c2ccc(C3CC4(CCN(c5ncc(-c6ccc7cn([C@H]8CC[C@H](CNC(=O)c9cc(F)c(O)c(F)c9F)CC8)nc7c6)cn5)CC4)C3)cc21 (mixture of isomers) [Example 80, trifluoroacetate salt]", "uom": "%", "result.number": 84}
{"compound": "Cn1c(=O)n(C2CCC(=O)NC2=O)c2ccc(CCCN3CCc4cc(-c5ccc6cn([C@H]7CC[C@H](CNC(=O)c8cc(F)c(O)c(F)c8F)CC7)nc6c5)ncc4C3)cc21 (mixture of isomers)", "uom": "%", "result.number": 81}

Query block: Can you look up the measured Huh7_HIBIT-HSD17β13_DC50 GMean Asymptote Maximum of Cc1ccc(C(=O)N2CCC3(CC2)CC(N2CCN(c4cnc(-c5ccc6cn([C@H]7CC[C@H](CNC(=O)c8cc(F)c(O)c(F)c8F)CC7)nc6c5)cn4)CC2)C3)cc1N1CCC(=O)NC1=O [Example 72, trifluoroacetate salt] for me?
Result block: 78

Query block: Then Cn1c(=O)n(C2CCC(=O)NC2=O)c2ccc(CCN3CCN(c4nccc(-c5nc([C@]67CC[C@](CNC(=O)c8cc(F)c(O)c(F)c8F)(CC6)CC7)no5)n4)CC3)cc21 (mixture of isomers) [Example 60, trifluoroacetate salt] ?
Result block: 78

Query block: Query Cn1c(=O)n(C2CCC(=O)NC2=O)c2ccc(CCCN3CCN(c4nccc(-c5nc(C6CCC(CNC(=O)c7cc(F)c(O)c(F)c7F)CC6)no5)n4)CC3)cc21.O=C(O)C(F)(F)F (racemic) next
Result block: 85

Query block: And Cn1c(=O)n(C2CCC(=O)NC2=O)c2ccc(CCCN3Cc4ccc(-c5ccc6c(C7CC7)n([C@H]7CC[C@H](CNC(=O)c8cc(F)c(O)c(F)c8F)CC7)nc6c5)cc4C3)cc21 (mixture of isomers) [Example 129, trifluoroacetate salt] ?
Result block: 83

Query block: Proceed to "Cc1ccc(C(=O)N2CCC3(CC2)CCN(c2ncc(-c4ccc5cn([C@H]6CC[C@H](CNC(=O)c7cc(F)c(O)c(F)c7F)CC6)nc5c4)cn2)C3)cc1N1CCC(=O)NC1=O"
Result block: 80

* * *

system: HiBiT-HSD17β13 fusion protein (N-terminal HiBiT-tagged HSD17β13 isoform D) in Huh7 HiBiT-HSD17β13 OE cells; assay: Whole-cell Huh7-HSD17B13 HiBiT assay (degrader potency and maximal efficacy, luminescence readout); format: cell-based, human; conditions: 24 hour incubation, max. concentration 1 μM, geometric mean, * = geometric mean for all forms tested (parent and salt forms)
Structures can show the parent of a compound that is named as a salt.
endpoint.name: Huh7_HIBIT-HSD17β13_DC50 GMean Asymptote Maximum (%)
Field format: number, assumed %, no unit text.

Below: 8 compounds and their reported Huh7_HIBIT-HSD17β13_DC50 GMean Asymptote Maximum.
{"compound": "Cn1c(=O)n(C2CCC(=O)NC2=O)c2ccc(CCCN3CCc4nc(-c5ccc6cn([C@H]7CC[C@H](CNC(=O)c8cc(F)c(O)c(F)c8F)CC7)nc6c5)ncc4C3)cc21 (mixture of isomers)", "result.number": 78}
{"compound": "Cc1ccc(C(=O)N2CCC3(CC2)CC(N2CCN(c4ccc5cn([C@H]6CC[C@H](CNC(=O)c7cc(F)c(O)c(F)c7F)CC6)nc5c4)CC2)C3)cc1N1CCC(=O)NC1=O [Example 82, trifluoroacetate salt]", "result.number": 74}
{"compound": "Cc1ccc(C(=O)N2CCN(CC3CCN(c4ncc(-c5ccc6cn([C@H]7CC[C@H](CNC(=O)c8cc(F)c(O)c(F)c8F)CC7)nc6c5)cn4)CC3)CC2)cc1N1CCC(=O)NC1=O [Example 42, trifluoroacetate salt]", "result.number": 83}
{"compound": "COc1nc(-c2ccc3cn([C@H]4CC[C@H](CNC(=O)c5cc(F)c(O)c(F)c5F)CC4)nc3c2)nc2c1CN(CCCc1ccc3c(c1)n(C)c(=O)n3C1CCC(=O)NC1=O)C2 (mixture of isomers) [Example 126, trifluoroacetate salt]", "result.number": 84}
{"compound": "Cc1ccc(C(=O)N2CCC3(CC2)C[C@@H](N2CCN(c4ncc(-c5ccc6cn([C@H]7CC[C@H](CNC(=O)c8cc(F)c(O)c(F)c8F)CC7)nc6c5)cn4)CC2)CO3)cc1N1CCC(=O)NC1=O [Example 68, trifluoroacetate salt]", "result.number": 79}
{"compound": "Cn1c(=O)n(C2CCC(=O)NC2=O)c2ccc(CCN3CCN(c4cncc(-c5ccc6cn(C7CCC(CNC(=O)c8cc(F)c(O)c(F)c8F)CC7)nc6c5)n4)CC3)cc21.O=C(O)C(F)(F)F (racemic)", "result.number": 85}
{"compound": "Cn1c(=O)n(C2CCC(=O)NC2=O)c2ccc(CCN3CCC(Cc4ccc5cn([C@H]6CC[C@H](CNC(=O)c7cc(F)c(O)c(F)c7F)CC6)nc5c4)C(F)(F)C3)cc21 (mixture of isomers) [Example 64, trifluoroacetate salt]", "result.number": 85}
{"compound": "Cn1c(=O)n(C2CCC(=O)NC2=O)c2ccc(CCCCCC(=O)N3CCN(c4ccc5cn([C@H]6CC[C@H](CNC(=O)c7cc(F)c(O)c(F)c7F)CC6)nc5c4)CC3)cc21 (mixture of isomers) [Example 39, trifluoroacetate salt]", "result.number": 86}

Query block: State the recorded Huh7_HIBIT-HSD17β13_DC50 GMean Asymptote Maximum for this entry: Cc1ccc(C(=O)N2CCC3(CCC(N4CCN(c5ccc6cn([C@H]7CC[C@H](CNC(=O)c8cc(F)c(O)c(F)c8F)CC7)nc6c5)CC4)C3)CC2)cc1N1CCC(=O)NC1=O (stereo partly shown) [Example 113, formate salt]
Result block: 79

Query block: Further, for Cn1c(=O)n(C2CCC(=O)NC2=O)c2ccc(CCCN3C[C@@H]4CCN(c5ccc6cn([C@H]7CC[C@H](CNC(=O)c8cc(F)c(O)c(F)c8F)CC7)nc6c5)C[C@@H]4C3)cc21 (mixture of isomers) [Example 102, formate salt] ?
Result block: 74

* * *

Measured Huh7_HIBIT-HSD17β13_DC50 GMean Asymptote Maximum by item
system: HiBiT-HSD17β13 fusion protein (N-terminal HiBiT-tagged HSD17β13 isoform D) in Huh7 HiBiT-HSD17β13 OE cells; assay: Whole-cell Huh7-HSD17B13 HiBiT assay (degrader potency and maximal efficacy, luminescence readout); format: cell-based, human; details: 24 hour incubation, max. concentration 1 μM, geometric mean, * = geometric mean for all forms tested (parent and salt forms)
Counter-ions that a name gives are not always drawn.
Form entry: value (%) — number only.

{"molecule": "Cn1c(=O)n(C2CCC(=O)NC2=O)c2ccc(CCCN3CC(n4cc(-c5ccc6cn([C@H]7CC[C@H](CNC(=O)c8cc(F)c(O)c(F)c8F)CC7)nc6c5)cn4)C3)cc21 (mixture of isomers)", "result.number": 86}
{"molecule": "Cn1c(=O)n(C2CCC(=O)NC2=O)c2ccc(CCCN3CCn4cc(-c5ccc6cn([C@H]7CC[C@H](CNC(=O)c8cc(F)c(O)c(F)c8F)CC7)nc6c5)nc4C3)cc21 (mixture of isomers) [Example 100, formate salt]", "result.number": 84}
{"molecule": "Cn1c(=O)n(C2CCC(=O)NC2=O)c2ccc(CCN3CCC(F)(Cc4ccc5cn([C@H]6CC[C@H](CNC(=O)c7cc(F)c(O)c(F)c7F)CC6)nc5c4)CC3)cc21 (mixture of isomers) [Example 44, trifluoroacetate salt]", "result.number": 84}
{"molecule": "O=C1CCC(N2Cc3cc(N4CCC(CCN5CCN(c6nccc(-c7nc([C@]89CC[C@](CNC(=O)c%10cc(F)c(O)c(F)c%10F)(CC8)CC9)no7)n6)CC5)CC4)ccc3C2=O)C(=O)N1 (mixture of isomers) [Example 132, trifluoroacetate salt]", "result.number": 82}
{"molecule": "Cn1c(=O)n(C2CCC(=O)NC2=O)c2ccc(CCCN3CCN(c4ncc(-c5ccc6cn([C@]78CC[C@](CNC(=O)c9cc(F)c(O)c(F)c9F)(CC7)CC8)nc6c5)cn4)CC3)cc21 (mixture of isomers) [Example 95, trifluoroacetate salt]", "result.number": 80}

Query block: Quick one: Huh7_HIBIT-HSD17β13_DC50 GMean Asymptote Maximum of Cc1ccc(C(=O)N2CCC3(CC2)CC(N2CCN(c4cnc(-c5ccc6cn([C@H]7CC[C@H](CNC(=O)c8cc(F)c(O)c(F)c8F)CC7)nc6c5)cn4)CC2)CO3)cc1N1CCC(=O)NC1=O (stereo partly drawn) [Example 71, trifluoroacetate salt] ?
Result block: 76

Query block: Cn1c(=O)n(C2CCC(=O)NC2=O)c2ccc(CCCN3CCc4nc(-c5ccc6cn([C@H]7CC[C@H](CNC(=O)c8cc(F)c(O)c(F)c8F)CC7)nc6c5)ccc4C3)cc21 (mixture of isomers) ?
Result block: 74

Query block: Repeat with Cn1c(=O)n(C2CCC(=O)NC2=O)c2ccc(CCCN3CCN(c4nc(-c5nc([C@]67CC[C@](CNC(=O)c8cc(F)c(O)c(F)c8F)(CC6)CC7)no5)cc(N5CCCC5)n4)CC3)cc21 (mixture of isomers) [Example 127, trifluoroacetate salt]
Result block: 79

Query block: Now this one: O=C1CCN(c2cnn3cc(CCCN4CCN(c5ncc(-c6ccn7cc([C@]89CC[C@](CNC(=O)c%10cc(F)c(O)c(F)c%10F)(CC8)CC9)nc7c6)cn5)CC4)ccc23)C(=O)N1 [Example 99, formate salt]
Result block: 70

Query block: Would you mind doing Cn1c(=O)n(C2CCC(=O)NC2=O)c2ccc(CCCN3CCN(c4nccc(-c5nc(C67CCC(CNC(=O)c8cc(F)c(O)c(F)c8F)(CC6)CC7)cs5)n4)CC3)cc21.O=CO (racemic) as well?
Result block: 84

Where do these numbers come from? They come from patent US20240238425A1.
